System: SNB-19 CNS
test.protocol: NCI tumour cell line growth inhibition, 48 h; in the data active = GI50 below about 0.43 µM; inactive = the rest
Write down the outcome that applies. Available outcomes: active, inactive

Problem: Record lookup: outcome of this test for CCN(CC)CCC(CNc1c(C)cnc2cc(Cl)ccc12)c1ccc(Cl)c(Cl)c1 (stereo not drawn) ?
Solution: inactive

Problem: Hello, I am checking results. What call was entered for COc1ccc(/C=C2/C(=O)N(/C=C3\C(=O)Oc4ccccc4C3=O)C(=NC(C)=O)N2C)cc1OC ?
Solution: inactive

Problem: I'd appreciate the recorded outcome for COc1ccc2c(ccc3oc([N+](=O)[O-])cc32)c1 from this test.
Solution: active

Problem: Which outcome was assigned to COc1ccc(-n2nc(C(=O)c3ccccc3)c3nn4c(=O)cc(-c5ccccc5)nc4nc32)cc1 in this test?
Solution: inactive

Problem: Recorded call for CCN1C(=O)N[C@H]2[C@@H]3NC(=O)c4ccc(Cl)n4[C@@H]3C[C@]21O ?
Solution: active

Problem: Please let me know the test result on file for NC1=C(/C(N)=N/O)C(c2ccccc2)c2ccc3ccccc3c2O1 (stereo not drawn) .
Solution: inactive

Problem: Answer briefly: the call reported for CCSc1nc(N)c(C#N)c(-c2ccc(OC)c(OC)c2)c1C#N in this assay.
Solution: inactive

Problem: Any idea what this test logged for C=CC(=O)OCCCS(=O)(=O)[O-].C=CC(=O)OCCCS(=O)(=O)[O-].NC1CCCCC1N.[Pt+4] ?
Solution: inactive
